Where do the numbers come from? From patent US20220056137A1.

# Target Or System: T1, human PD-L1 protein (soluble) (human, UniProt Q9NZQ7 19-239)
# T1 construct: also called PD-L1 (R&D Systems); His-tagged PD-L1 protein
# T1 sequence (Q9NZQ7 19-239 limits assumed): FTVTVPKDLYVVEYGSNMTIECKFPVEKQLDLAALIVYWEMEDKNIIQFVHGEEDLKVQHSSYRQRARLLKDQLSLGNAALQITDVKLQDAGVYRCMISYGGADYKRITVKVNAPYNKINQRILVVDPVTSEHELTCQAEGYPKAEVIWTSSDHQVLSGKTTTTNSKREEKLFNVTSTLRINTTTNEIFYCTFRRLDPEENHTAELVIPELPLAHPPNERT
# Assay Overview: SPR, mAb captured on anti-human IgG Fc, PD-L1 as analyte;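 note: array SPR with mAb supernatants captured at several densities, PD-L1 injected for 5 min then 15 min dissociation, non-regenerative kinetic series, double-referenced against interspot surface and blank injection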
Rule: Kd below 60 nM gives True, anything at or above gives False.

Example entries and their recorded answers appear below.
{"columns": ["Binder", "Category Label"],
 "data": [
  ["antibody A5 (antibody, V domains shown, Tested as full-length mAb made in CHO cells; also called L5H5) VH: QVQLVESGGGVVQPGRSLRLSCAASGFAFSSYGMHWVRQAPGKGLEWVALIWFDGNNKFYADSVKGRFTISRDNSKNTLYLQMNSLRAEDTAVYYCARDTTAASFDYWGQGTLVTVSS VL: EIVMTQSPATLSLSPGERATLSCRASQSVSSTYLSWYQQKPGQAPRLLIFGASTRATGIPARFSGSGSGTDFTLTISSLQPEDFAVYYCQQDYNLPPTFGPGTKVDIK", "True"],
  ["antibody A4 (antibody, V domains shown, Tested as full-length mAb made in CHO cells; also called L4H4) VH: QVQLVESGGGVVQPGRSLRLSCAASGFTFSNYGMHWVRQAPGKGLEWVAVIWFDGNTKYYTDSVKGRFTISRDNSKNTLYLQMNSLRAEDTAVYYCARDITMVPMDVWGQGTTVTVSS VL: AIQMTQSPSSLSASVGDRVTITCRASQDIRNDLGWYQQQPGKAPKLLIYAASSLQSGVPSRFSGSGSGTDFTLTISSLQPEDFATYYCLQDYNYPPTFGQGTKVEIK", "True"],
  ["antibody A14 (antibody, V domains shown, Tested as full-length mAb made in CHO cells; also called L14H14) VH: QVQLVESGGGVVQPGRSLRLSCAASGFTFSSYGMHWVRQAPGKGLEWVAVIWYDGSVKYYADSVKGRFTISRDNSKNTLYLQMNSLRAEDTAVYYCARDRTGVPFDYWGQGTLVTVSS VL: EIVMTQSPATLSLSPGERATLSCRASQSVSSSYLSWYQQKPGQAPRLLIYGASTRATGIPARFSGSGSGTDFTLTISSLQPEDFAVYYCQQDYNLPHTFGQGTKLEIK", "False"]
]}

[ask] Lab note: confirm whether the reported Kd for this binder is below 60 nM, equality not counting. binder: antibody A3 (antibody, V domains shown, Tested as full-length mAb made in CHO cells; also called L3H3) VL: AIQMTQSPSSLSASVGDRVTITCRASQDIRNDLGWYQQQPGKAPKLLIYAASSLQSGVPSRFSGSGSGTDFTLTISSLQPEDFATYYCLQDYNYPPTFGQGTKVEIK V domain: QVQLVESGGGVVQPGRSLRLSCAASGFTFSNYGMHWVRQAPGKGLEWVAVIWFDGNTKYYTDSVKGRFTISRDNSKNTLYLQMNSLRAEDTAVYYCARDTTMVPMDVWGQGTTATVSS
[reply] True

[ask] Lab note: confirm whether the reported Kd for this binder is below 60 nM, equality not counting. binder: antibody A11 (antibody, V domains shown, Tested as full-length mAb made in CHO cells; also called L11H11) VH: QVQLVESGGGVVQPGRSLRLSCAASGFTFSSYGIHWVRQAPGKGLEWVAVIWSDGSNKFYADSVKGRFTISRDNSKNTLFLQMSSLRAEDTAVYYCARDIAAAIDYWGQGTLVTVSS VL: AIQMTQSPSSLSASVGDRVTITCRASQGIRNDLGWYQQKPGKAPKLLIYAASSLQSGVPSRFSGSGSGTDFTLTISSLQPEDFATYYCLQDYNYPYTFGQGTKLEIK
[reply] False

[ask] Lab note: confirm whether the reported Kd for this binder is below 60 nM, equality not counting. binder: antibody A21 (antibody, V domains shown, Tested as full-length mAb made in CHO cells; also called L21H21) VH: QVQLVESGGGVVQPGRSLRLSCAASGFTFSSYGMHWVRQAPGKGLEWVAVIWYDGSNKFYEDSVKGRFTISRDNSKNTLYLQMNSLRAEDTAVYYCARGGVNWNDVGYYYYGMDVWGQGTTVTVSS VL: DIQLTQSPPFLSASVGDRVTITCRASQGISSYLAWYQQKPGKAPKLLIYAASTLQSGVPSRFSGSGSGTEFTLTISSLQPEDFATYYCQQLNSYPFTFGQGTKLEIK
[reply] False
